// provenance: the supplement of paper PMC7125110

B1: glmS ribozyme (parent)
chain: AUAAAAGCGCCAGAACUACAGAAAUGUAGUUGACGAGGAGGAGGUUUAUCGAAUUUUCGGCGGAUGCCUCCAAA

- Variants of: B1
- Measurement Notes: self-cleavage kobs at 10000 uM GlcN6P; higher = faster cleavage; RNA array
- Assay Context: with glucosamine-6-phosphate
Variants at the floor of the assay were thinned out.
Observation Type: self-cleavage kobs at 10000 uM GlcN6P (s⁻¹)
Express the result in s⁻¹ but write the number alone.

> print(dat)
                  mutation.code                       observation.type  unit.text  experimental.value
1                     A12C U65A  self-cleavage kobs at 10000 uM GlcN6P        s⁻¹             0.00173
2  C8A C11U A15U C50G U56A G63A  self-cleavage kobs at 10000 uM GlcN6P        s⁻¹             0.00011
3                U47A U65G G66U  self-cleavage kobs at 10000 uM GlcN6P        s⁻¹             0.00262
4                     A15G A48G  self-cleavage kobs at 10000 uM GlcN6P        s⁻¹            8.59e-05
5                     G29U U55G  self-cleavage kobs at 10000 uM GlcN6P        s⁻¹             0.00239
6                     G41A A52G  self-cleavage kobs at 10000 uM GlcN6P        s⁻¹            6.83e-05
7                     A14G G66C  self-cleavage kobs at 10000 uM GlcN6P        s⁻¹             0.00147
8      A15G C16U U47C U65A U69C  self-cleavage kobs at 10000 uM GlcN6P        s⁻¹            6.04e-05

Q: Look up self-cleavage kobs at 10000 uM GlcN6P: A18G
Ans: 0.0231

Q: Look up self-cleavage kobs at 10000 uM GlcN6P: U45G U54A
Ans: 0.00721

Q: Look up self-cleavage kobs at 10000 uM GlcN6P: G32U U57A
Ans: 6.86e-05

Q: Look up self-cleavage kobs at 10000 uM GlcN6P: A14U A33C
Ans: 6.52e-05
